# System Under Test: human acetyl-CoA carboxylase 2 (ACC2) (Homo sapiens, UniProt O00763)
# Construct: The cDNA encoding amino acids 144 to 2458 of human acetyl-CoA carboxylase 2; made in house; host or cells: Sf9 insect cells (baculovirus, pFastBac1)
# Sequence (O00763 144-2458): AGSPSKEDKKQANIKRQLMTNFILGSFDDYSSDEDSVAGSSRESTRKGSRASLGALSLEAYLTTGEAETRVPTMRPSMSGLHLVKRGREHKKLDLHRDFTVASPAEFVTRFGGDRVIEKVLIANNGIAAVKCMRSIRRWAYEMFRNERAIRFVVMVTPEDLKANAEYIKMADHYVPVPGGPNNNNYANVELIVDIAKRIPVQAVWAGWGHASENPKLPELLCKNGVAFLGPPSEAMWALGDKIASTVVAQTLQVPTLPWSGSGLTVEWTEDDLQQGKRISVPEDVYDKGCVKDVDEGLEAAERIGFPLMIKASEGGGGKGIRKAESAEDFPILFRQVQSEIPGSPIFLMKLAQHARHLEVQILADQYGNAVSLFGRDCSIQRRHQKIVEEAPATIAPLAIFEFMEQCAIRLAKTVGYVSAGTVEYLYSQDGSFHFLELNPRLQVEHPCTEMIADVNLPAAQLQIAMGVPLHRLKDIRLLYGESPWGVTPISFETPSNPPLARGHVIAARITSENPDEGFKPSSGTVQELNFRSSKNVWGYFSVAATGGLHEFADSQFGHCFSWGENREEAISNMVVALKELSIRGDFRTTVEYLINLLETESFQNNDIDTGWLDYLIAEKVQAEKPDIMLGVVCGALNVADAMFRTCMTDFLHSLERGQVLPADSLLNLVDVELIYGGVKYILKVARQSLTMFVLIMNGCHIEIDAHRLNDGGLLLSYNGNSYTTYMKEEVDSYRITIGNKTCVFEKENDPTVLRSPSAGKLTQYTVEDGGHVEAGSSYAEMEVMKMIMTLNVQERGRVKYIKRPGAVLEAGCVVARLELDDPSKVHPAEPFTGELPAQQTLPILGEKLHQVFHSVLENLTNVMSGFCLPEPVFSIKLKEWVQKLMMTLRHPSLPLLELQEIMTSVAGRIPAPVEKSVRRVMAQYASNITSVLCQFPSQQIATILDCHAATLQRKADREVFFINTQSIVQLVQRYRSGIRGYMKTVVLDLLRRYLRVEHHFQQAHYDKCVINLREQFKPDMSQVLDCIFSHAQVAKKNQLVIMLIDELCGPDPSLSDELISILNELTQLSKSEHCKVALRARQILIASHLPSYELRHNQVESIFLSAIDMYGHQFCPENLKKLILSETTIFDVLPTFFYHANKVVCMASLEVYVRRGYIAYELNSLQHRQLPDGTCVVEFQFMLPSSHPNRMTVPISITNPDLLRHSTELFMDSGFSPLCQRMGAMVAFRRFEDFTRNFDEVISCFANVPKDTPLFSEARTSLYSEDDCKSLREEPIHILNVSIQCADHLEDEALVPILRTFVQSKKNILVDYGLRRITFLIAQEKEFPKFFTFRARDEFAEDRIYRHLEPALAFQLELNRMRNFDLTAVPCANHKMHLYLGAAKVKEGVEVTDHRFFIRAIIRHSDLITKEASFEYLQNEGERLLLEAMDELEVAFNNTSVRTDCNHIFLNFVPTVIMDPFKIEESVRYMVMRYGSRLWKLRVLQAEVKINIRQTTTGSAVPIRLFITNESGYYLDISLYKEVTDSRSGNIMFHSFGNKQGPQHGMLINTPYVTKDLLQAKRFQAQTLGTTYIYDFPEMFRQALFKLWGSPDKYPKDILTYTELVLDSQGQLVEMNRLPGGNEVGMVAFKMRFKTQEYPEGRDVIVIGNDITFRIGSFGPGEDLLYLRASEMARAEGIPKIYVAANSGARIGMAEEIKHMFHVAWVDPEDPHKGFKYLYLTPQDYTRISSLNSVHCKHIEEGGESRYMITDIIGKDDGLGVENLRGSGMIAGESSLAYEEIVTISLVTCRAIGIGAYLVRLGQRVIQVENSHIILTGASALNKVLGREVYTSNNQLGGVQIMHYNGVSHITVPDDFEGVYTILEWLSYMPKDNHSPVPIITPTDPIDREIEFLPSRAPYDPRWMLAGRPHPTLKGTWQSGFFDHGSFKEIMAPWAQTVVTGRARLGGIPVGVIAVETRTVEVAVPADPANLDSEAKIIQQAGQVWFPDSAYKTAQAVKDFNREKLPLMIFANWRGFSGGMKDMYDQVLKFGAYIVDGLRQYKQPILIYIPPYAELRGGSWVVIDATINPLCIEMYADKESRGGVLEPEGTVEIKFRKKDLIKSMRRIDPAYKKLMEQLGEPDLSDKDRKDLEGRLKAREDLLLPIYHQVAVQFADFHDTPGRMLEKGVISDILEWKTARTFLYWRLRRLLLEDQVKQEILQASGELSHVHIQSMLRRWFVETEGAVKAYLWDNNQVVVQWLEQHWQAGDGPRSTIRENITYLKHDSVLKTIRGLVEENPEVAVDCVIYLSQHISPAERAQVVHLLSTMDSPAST
# Experiment: Acetyl-CoA carboxylase enzyme assay (malonyl-CoA formation by LC/MS/MS)
# Format: biochemical
# Condition Description: recombinant human ACC2 (aa 144-2458); read-out: IC50 ACC2
pIC50: −log10 of the molar value.
pIC50 by entry:

// solved cases for pIC50 follow
Input line: State the recorded pIC50 for this entry: O=C([C@H]1CC[C@H](NS(=O)(=O)c2ccc3cc(-c4ccccc4)[nH]c3c2)CC1)N1CCOC[C@@H]1C1CC1 [Example 472]
Output line: > 8.00

Input line: What do we get for C[C@H](NC(=O)[C@H]1CC[C@@H](NS(=O)(=O)c2cnc3c(c2)NCCN3)CC1)c1ccc(F)cc1 [Example 198] ?
Output line: < 4.46

Input line: Would you kindly repeat that for CC(C)[C@H]1COCCN1C(=O)[C@H]1CC[C@H](NS(=O)(=O)c2ccc3cc(-c4ccc(CCC(=O)O)cc4)n(C)c3c2)CC1 [Example 29] ?
Output line: > 8.00

Others:
Input line: Param item = Cn1c(-c2ccc(CCC(=O)O)cc2)c(Cl)c2ccc(S(=O)(=O)N[C@H]3CC[C@H](C(=O)N4CCOC[C@@H]4C4CC4)CC3)cc21 [Example 28] ; retrieve measured pIC50.
Output line: > 8.00

Input line: Ok, now COC(=O)N1CCNc2ccc(S(=O)(=O)NC3CCC(C(=O)NC(C)c4ccc(F)cc4)CC3)cc21 (centres unmarked) [Example 221]
Output line: > 8.00

Recorded values, source patent US8697739B2.
